Recorded Kd, one value per entry.
- measured target: T1, LILRB1-ECD-HIS (SinoBiological Cat #: 16014-H02H) (human, UniProt Q8NHL6 24-461)
- T1 construct: Bought protein; also called monomeric antigen LILRB1-ECD-HIS; not shown: His tag
- T1 sequence (Q8NHL6 other isoform, or with tags, fused parts or gaps H02H H02H): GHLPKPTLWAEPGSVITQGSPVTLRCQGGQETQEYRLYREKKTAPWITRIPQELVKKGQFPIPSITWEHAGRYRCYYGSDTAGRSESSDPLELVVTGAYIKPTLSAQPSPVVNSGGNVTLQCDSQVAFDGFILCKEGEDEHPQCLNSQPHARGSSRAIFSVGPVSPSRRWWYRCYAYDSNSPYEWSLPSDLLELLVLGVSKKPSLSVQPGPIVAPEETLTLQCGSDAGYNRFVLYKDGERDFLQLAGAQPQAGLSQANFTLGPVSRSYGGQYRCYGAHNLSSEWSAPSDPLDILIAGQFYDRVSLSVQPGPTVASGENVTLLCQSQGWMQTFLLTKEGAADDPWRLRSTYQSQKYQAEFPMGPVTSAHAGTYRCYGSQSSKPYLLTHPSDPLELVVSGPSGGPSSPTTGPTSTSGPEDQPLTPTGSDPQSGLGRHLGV
- test summary: SPR (Carterra LSA), antibody captured, antigen injected;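 note: kd obtained from kinetic analysis of antibody binding to the antigen, with association and dissociation phases fitted in the instrument software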
Numeric answer only, unit nM assumed.

The binder listed as #21 (antibody, human IgG1, V domains shown, also called D2M002-021) VH: QVQLQQSGAELMKPGASVKISCKATGSTFSSYWIEWVKQRPGHGLEWIGEILPGSGSTNYNEKFKGKATFTADTSSNTAYMQLSSLTSEDSAVYYCARSGAGGYDSGAFAYWGQGTLVTVSA VL: DIVLTQSPASLAVSLGQRATISCRASESVDTYGNSFMHWYQQKPGQPPKLLIYRTSNLESGIPARFSGSGSRTDFTLTINPVEADDVATYYCQQSNEDPWTFGGGTKLEIK shows Kd equal to 0.667

The binder listed as #20 (antibody, human IgG1, V domains shown, also called D2M002-020) VH: QVQFQQSGVELMKPGASVKISCKATGNTFSNYWIEWVKQRPGHDLEWIGEILPGSGSTNYNEKFKGKATFTADTSSNTAYMQLNSLTSEDSAVYYCARSGAGGYDSGAFAYWGQGTLVTVSA VL: DIVMTQSPASLAVSLGQRATISCRASESVDSYGNSFMHWYQQKPGQPPKLLIYRTSNLESGIPARFSGSGSRTDFTLTINPVEADDVATYYCQQSNEDPWTFGGGTKLEIK shows Kd equal to 1.19

Reference source: patent US20250171534A1
